- experimental_details: Pharmacokinetics of the composition after oral administration
- Type: in vivo
- reported_conditions: rat, rats, serum, sample A 40 mg/kg or sample C (1:4) 200 mg/kg, read-out: AUC0-∞ of mangiferin
property: AUC(0-inf) (µg·h/mL)

| record_smiles | numeric_result |
| --- | --- |
| O=c1c2cc(O)c(O)cc2oc2cc(O)c([C@@H]3O[C@H](CO)[C@@H](O)[C@H](O)[C@H]3O)c(O)c12 | 1200 |
